assay: chemical genetic growth profiling, strain panel (AID 1159580);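 further: tested at 20 µM; growth read once vehicle control cultures reached saturation at 30 °C; 1 = growth at the plate median or of vehicle wells; lower values mean less growth of the strain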; conditions: S. cerevisiae deletion strains, growth OD, locus YCL061C, strain MRC1 (second series), hits give low values
The campaign covered roughly 5,500 compounds. About 2,000 (36%) were called active. Not shown: some 18% with an inconclusive outcome. The list shows a part of the results.
MEASURED ENDPOINT: normalized growth
Lab note: record just the number, no unit beside it.

CC(N)C(=O)OC(C)(C)Cc1ccc(Cl)cc1 (stereo not drawn)
0.995
Cn1cnc(CCN)c1
0.995
CN1CCc2cc(Cl)c(O)cc2[C@@H](c2ccccc2)C1
1
C=CCN1CCc2cc(O)c(O)cc2C(c2ccccc2)C1 (stereo not drawn)
0.979
C=CCN1CCc2c(cc(O)c(O)c2Cl)C(c2ccccc2)C1 (stereo not drawn)
0.934
O=C(O)C1C2CCC(O2)C1C(=O)O (stereo not drawn)
1

What does the data say about its normalized growth? Entry: O=c1onc2cnc3ccccc3n12
0.983

Likewise for Nc1nc2ccc(OC(F)(F)F)cc2s1 ?
0.979

CC(C)(C)NC[C@H](O)COc1nsnc1N1CCOCC1 ?
1

// next record CC(C)OC(=O)C(C)(C)Oc1ccc(C(=O)c2ccc(Cl)cc2)cc1
0.982

Okay, and CNc1cc(NS(=O)(=O)c2ccc(N)cc2)nc(NC)n1 ?
0.986

Please give the result for CNCC(O)c1cccc(O)c1 (stereo not drawn) too.
0.988

COc1ccc(CCNC[C@@H](O)c2ccc(O)cc2)cc1OC ?
0.993
